molecules and their reported viability, T/C
tested on: 616215-338-R-J1-PDC complex spheroids, viability % test/control; experiment: Anticancer human tumor 616215-338-R-J1-PDC patient-derived colon adenocarcinoma cell line growth inhibition [CLK]; conditions: second compound 0.1 µM; first compound 0.1 µM; active compounds read low

# MOLECULE, UNIT_SPEC, viability, T/C
data = [
    ("Cn1ncnc1[C@H]1c2n[nH]c(=O)c3cc(F)cc(c23)N[C@@H]1c1ccc(F)cc1 + CNC(=O)c1ccc(Nc2nc(OC3CCCC3)c3c(-c4ccc5nc(C)oc5c4)c[nH]c3n2)c(OC)c1", "%", 49.6),
    ("CCN1CCN(Cc2ccc(Nc3ncc(F)c(-c4cc(F)c5nc(C)n(C(C)C)c5c4)n3)nc2)CC1 + CN1CCN(c2cc(C(=O)Nc3cc4cc(-c5cnn(C)c5)ccc4cn3)ccn2)CC1", "%", 154),
    ("C=CC(=O)N1CCN(c2nc(=O)n(-c3c(C)ccnc3C(C)C)c3nc(-c4c(O)cccc4F)c(F)cc23)C(C)C1 (centres undefined) + CNC(=O)c1ccc(Nc2nc(OC3CCCC3)c3c(-c4ccc5nc(C)oc5c4)c[nH]c3n2)c(OC)c1", "%", 67.8),
    ("Nc1ccccc1NC(=O)c1ccc(CNC(=O)OCc2cccnc2)cc1 + CN1CCN(c2cc(C(=O)Nc3cc4cc(-c5cnn(C)c5)ccc4cn3)ccn2)CC1", "%", 123),
]

----------
tested on: 616215-338-R-J1-PDC complex spheroids, viability % test/control; experiment: Anticancer human tumor 616215-338-R-J1-PDC cell line growth inhibition [CLK]; settings: second compound 0.0316 µM; first compound 0.0949 µM; active compounds read low;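 also: spheroids exposed to agents for 7 days; 100% = DMSO vehicle wells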
Documented viability, T/C across a set of compounds

# COMPOUND, viability, T/C / %
data = [
    ("C=CC(=O)Nc1cc(Nc2nccc(-c3cn(C)c4ccccc34)n2)c(OC)cc1N(C)CCN(C)C + CNC(=O)c1ccc(Nc2nc(OC3CCCC3)c3c(-c4ccc5nc(C)oc5c4)c[nH]c3n2)c(OC)c1", 98.7),
    ("NC(=O)C(=Cn1cnc(-c2cc(C(F)(F)F)cc(C(F)(F)F)c2)n1)c1cncnc1 + CNC(=O)c1ccc(Nc2nc(OC3CCCC3)c3c(-c4ccc5nc(C)oc5c4)c[nH]c3n2)c(OC)c1", 96),
    ("C=CC(=O)Nc1cc(Nc2nccc(-c3cn(C)c4ccccc34)n2)c(OC)cc1N(C)CCN(C)C + CN1CCN(c2cc(C(=O)Nc3cc4cc(-c5cnn(C)c5)ccc4cn3)ccn2)CC1", 107),
    ("CC(C)CC(NC(=O)C(Cc1ccccc1)NC(=O)c1cnccn1)B(O)O (stereo unspecified) + CNC(=O)c1ccc(Nc2nc(OC3CCCC3)c3c(-c4ccc5nc(C)oc5c4)c[nH]c3n2)c(OC)c1", 0.24),
    ("NC(=O)C(=Cn1cnc(-c2cc(C(F)(F)F)cc(C(F)(F)F)c2)n1)c1cncnc1 + CN1CCN(c2cc(C(=O)Nc3cc4cc(-c5cnn(C)c5)ccc4cn3)ccn2)CC1", 74.5),
    ("CC(C)CC(NC(=O)C(Cc1ccccc1)NC(=O)c1cnccn1)B(O)O (stereo unspecified) + CN1CCN(c2cc(C(=O)Nc3cc4cc(-c5cnn(C)c5)ccc4cn3)ccn2)CC1", 0.16),
]

----------
system: 616215-338-R-J1-PDC complex spheroids, viability % test/control; assay: Anticancer human tumor 616215-338-R-J1-PDC cell line growth inhibition [CLK]; settings: second compound 0.316 µM; first compound 10 µM; active = viability on the fitted dose curve at most 10% of control; inactive = the rest;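 also: spheroids exposed to agents for 7 days; 100% = DMSO vehicle wells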
Labels: label 1 = active, label 0 = inactive

# MOLECULE, CLASS_NAME
rows = [
    ("Nc1ccccc1NC(=O)c1ccc(CNC(=O)OCc2cccnc2)cc1 + CN1CCN(c2cc(C(=O)Nc3cc4cc(-c5cnn(C)c5)ccc4cn3)ccn2)CC1", "label 1"),
    ("C#Cc1c(F)ccc2cc(O)cc(-c3ncc4c(N5CC6CCC(C5)N6)nc(OCC56CCCN5CC(F)C6)nc4c3F)c12 (configuration not stated) + CNC(=O)c1ccc(Nc2nc(OC3CCCC3)c3c(-c4ccc5nc(C)oc5c4)c[nH]c3n2)c(OC)c1", "label 0"),
    ("C=CC(=O)N1CCN(c2nc(=O)n(-c3c(C)ccnc3C(C)C)c3nc(-c4c(O)cccc4F)c(F)cc23)C(C)C1 (configuration not stated) + CN1CCN(c2cc(C(=O)Nc3cc4cc(-c5cnn(C)c5)ccc4cn3)ccn2)CC1", "label 0"),
    ("C=C(F)C(=O)N1CCN(c2nc(OCC3CCCN3C)nc3c2CCN(c2cccc4cccc(Cl)c24)C3)CC1CC#N (configuration not stated) + CN1CCN(c2cc(C(=O)Nc3cc4cc(-c5cnn(C)c5)ccc4cn3)ccn2)CC1", "label 1"),
    ("CC(Nc1ccc2c(c1)OCCn1cc(N3C(=O)OCC3C(F)F)nc1-2)C(N)=O (configuration not stated) + CN1CCN(c2cc(C(=O)Nc3cc4cc(-c5cnn(C)c5)ccc4cn3)ccn2)CC1", "label 0"),
    ("Nc1ccn(C2OC(CO)C(O)C2(F)F)c(=O)n1 (configuration not stated) + CN1CCN(c2cc(C(=O)Nc3cc4cc(-c5cnn(C)c5)ccc4cn3)ccn2)CC1", "label 0"),
    ("CC(=O)O[C@H]1C(=O)[C@@]2(C)[C@H]([C@H](OC(=O)c3ccccc3)[C@]3(O)C[C@H](OC(=O)[C@H](O)[C@@H](NC(=O)c4ccccc4)c4ccccc4)C(C)=C1C3(C)C)[C@]1(OC(C)=O)CO[C@@H]1C[C@@H]2O + CN1CCN(c2cc(C(=O)Nc3cc4cc(-c5cnn(C)c5)ccc4cn3)ccn2)CC1", "label 0"),
    ("CC1(C)CCC(CN2CCN(c3ccc(C(=O)NS(=O)(=O)c4ccc(NCC5CCOCC5)c([N+](=O)[O-])c4)c(Oc4cnc5[nH]ccc5c4)c3)CC2)=C(c2ccc(Cl)cc2)C1 + CNC(=O)c1ccc(Nc2nc(OC3CCCC3)c3c(-c4ccc5nc(C)oc5c4)c[nH]c3n2)c(OC)c1", "label 0"),
    ("CC(CO)NC(=O)c1cc(-c2ccc(Cl)cc2)nn(-c2cnn(C)c2)c1=O (configuration not stated) + CNC(=O)c1ccc(Nc2nc(OC3CCCC3)c3c(-c4ccc5nc(C)oc5c4)c[nH]c3n2)c(OC)c1", "label 0"),
    ("CC1(C)CCC(CN2CCN(c3ccc(C(=O)NS(=O)(=O)c4ccc(NCC5CCOCC5)c([N+](=O)[O-])c4)c(Oc4cnc5[nH]ccc5c4)c3)CC2)=C(c2ccc(Cl)cc2)C1 + CN1CCN(c2cc(C(=O)Nc3cc4cc(-c5cnn(C)c5)ccc4cn3)ccn2)CC1", "label 1"),
    ("CC(CO)NC(=O)c1cc(-c2ccc(Cl)cc2)nn(-c2cnn(C)c2)c1=O (configuration not stated) + CN1CCN(c2cc(C(=O)Nc3cc4cc(-c5cnn(C)c5)ccc4cn3)ccn2)CC1", "label 0"),
    ("O=c1[nH]cc(F)c(=O)[nH]1 + CNC(=O)c1ccc(Nc2nc(OC3CCCC3)c3c(-c4ccc5nc(C)oc5c4)c[nH]c3n2)c(OC)c1", "label 0"),
]

----------
tested on: 616215-338-R-J1-PDC complex spheroids, viability % test/control; experiment: Anticancer human tumor 616215-338-R-J1-PDC cell line growth inhibition [CLK]; conditions: second compound 1 µM; first compound 0.0316 µM; active = viability on the fitted dose curve at most 10% of control; inactive = the rest;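 also: spheroids exposed to agents for 7 days; 100% = DMSO vehicle wells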
Labels: active, inactive

# COMPOUND, CLASS_NAME
rows = [
    ("COc1c(OCCCN2CCOCC2)ccc2c3n(c(=NC(=O)c4cnc(N)nc4)nc12)CCN3 + CNC(=O)c1ccc(Nc2nc(OC3CCCC3)c3c(-c4ccc5nc(C)oc5c4)c[nH]c3n2)c(OC)c1", "inactive"),
    ("C=CC(=O)N1CCN(c2nc(=O)n(-c3c(C)ccnc3C(C)C)c3nc(-c4c(O)cccc4F)c(F)cc23)C(C)C1 (stereo not given) + CN1CCN(c2cc(C(=O)Nc3cc4cc(-c5cnn(C)c5)ccc4cn3)ccn2)CC1", "active"),
    ("C=C(F)C(=O)N1CCN(c2nc(OCC3CCCN3C)nc3c2CCN(c2cccc4cccc(Cl)c24)C3)CC1CC#N (stereo not given) + CN1CCN(c2cc(C(=O)Nc3cc4cc(-c5cnn(C)c5)ccc4cn3)ccn2)CC1", "active"),
    ("CC1COCCN1c1cc(C2(S(C)(=N)=O)CC2)nc(-c2ccnc3[nH]ccc23)n1 (stereo not given) + CN1CCN(c2cc(C(=O)Nc3cc4cc(-c5cnn(C)c5)ccc4cn3)ccn2)CC1", "active"),
    ("O=C(c1cc(Cc2n[nH]c(=O)c3ccccc23)ccc1F)N1CCN(C(=O)C2CC2)CC1 + CNC(=O)c1ccc(Nc2nc(OC3CCCC3)c3c(-c4ccc5nc(C)oc5c4)c[nH]c3n2)c(OC)c1", "inactive"),
]

----------
tested on: 616215-338-R-J1-PDC complex spheroids, viability % test/control; assay: Anticancer human tumor 616215-338-R-J1-PDC cell line growth inhibition [CLK]; conditions: second compound 3.16 µM; first compound 0.0316 µM; active = viability on the fitted dose curve at most 10% of control; inactive = the rest;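 also: spheroids exposed to agents for 7 days; 100% = DMSO vehicle wells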
Outcome codes: yes for active, no for inactive

# COMPOUND, CLASS_NAME
records = [
    ("Nc1ccn(C2OC(CO)C(O)C2(F)F)c(=O)n1 (stereo not given) + CN1CCN(c2cc(C(=O)Nc3cc4cc(-c5cnn(C)c5)ccc4cn3)ccn2)CC1", "yes"),
    ("Cn1ncnc1[C@H]1c2n[nH]c(=O)c3cc(F)cc(c23)N[C@@H]1c1ccc(F)cc1 + CNC(=O)c1ccc(Nc2nc(OC3CCCC3)c3c(-c4ccc5nc(C)oc5c4)c[nH]c3n2)c(OC)c1", "no"),
    ("CC1COCCN1c1cc(C2(S(C)(=N)=O)CC2)nc(-c2ccnc3[nH]ccc23)n1 (stereo not given) + CNC(=O)c1ccc(Nc2nc(OC3CCCC3)c3c(-c4ccc5nc(C)oc5c4)c[nH]c3n2)c(OC)c1", "no"),
    ("COC1C=CCC(C)C(C)S(=O)(=O)NC(=O)c2ccc3c(c2)N(CC2CCC21)CC1(CCCc2cc(Cl)ccc21)CO3 (stereo not given) + CN1CCN(c2cc(C(=O)Nc3cc4cc(-c5cnn(C)c5)ccc4cn3)ccn2)CC1", "yes"),
    ("CCN1CCN(Cc2ccc(Nc3ncc(F)c(-c4cc(F)c5nc(C)n(C(C)C)c5c4)n3)nc2)CC1 + CN1CCN(c2cc(C(=O)Nc3cc4cc(-c5cnn(C)c5)ccc4cn3)ccn2)CC1", "yes"),
]
